test system: Escherichia coli; assay: Activity of Escherichia coli beta-lactamase Toho-1 N104A mutant assessed as compound hydrolysis by spectrophotometry
The reader will find reported Km values listed item by item below.
Quantity: Km (µM)

> print(dat)
                                   compound  quantity  number
1  CC(=O)OCC1=C(C(=O)O)N2C(=O)[C@@H](NC(=O)Cc3cccs3)[C@H]2SC1        Km     140
2  CC1(C)S[C@@H]2[C@H](NC(=O)[C@H](N)c3ccccc3)C(=O)N2[C@H]1C(=O)O        Km      38
3  C[C@H]1[C@H](NC(=O)/C(=N\OC(C)(C)C(=O)O)c2csc(N)n2)C(=O)N1S(=O)(=O)O        Km     240
4  O=C(Cc1cccs1)N[C@@H]1C(=O)N2C(C(=O)[O-])=C(C[n+]3ccccc3)CS[C@H]12        Km     450
